The following compounds are shown together with reported viability, T/C values.
- Test system: 519858-162-T-J1-PDC complex spheroid viability;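 note: spheroids exposed to compounds for 7 days; 100% = DMSO vehicle control viability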
- ASSAY_PROCEDURE: Anticancer human tumor 519858-162-T-J1-PDC patient-derived colon adenocarcinoma cell line growth inhibition [GQUAD]
- MEASUREMENT_SETUP: second compound 0.0316 µM; first compound 0.000999 µM; hits give low values

>  <COMPOUND>
CCc1c2c(nc3ccc(O)cc13)-c1cc3c(c(=O)n1C2)COC(=O)[C@]3(O)CC + Cc1[nH]c2ccc(F)cc2c1-c1nc2c3cccnc3c3ncccc3c2[nH]1

>  <viability, T/C, %>
124

$$$$
>  <COMPOUND>
Cn1ncnc1[C@H]1c2n[nH]c(=O)c3cc(F)cc(c23)N[C@@H]1c1ccc(F)cc1 + CN(C)c1ccc(Nc2c3ccc(NC(=O)CCN4CCCC4)cc3nc3cc(NC(=O)CCN4CCCC4)ccc23)cc1

>  <viability, T/C, %>
74.5

$$$$
>  <COMPOUND>
CC[C@@]1(O)C(=O)OCc2c1cc1n(c2=O)Cc2cc3c(CN(C)C)c(O)ccc3nc2-1 + Cc1cnc(CNC(=O)c2c(=O)c3ccc(N4CCCN(C)CC4)nc3n3c2sc2ccccc23)cn1

>  <viability, T/C, %>
88

$$$$
>  <COMPOUND>
CCc1c2c(nc3ccc(O)cc13)-c1cc3c(c(=O)n1C2)COC(=O)[C@]3(O)CC + Cc1cnc(CNC(=O)c2c(=O)c3ccc(N4CCCN(C)CC4)nc3n3c2sc2ccccc23)cn1

>  <viability, T/C, %>
121

$$$$
>  <COMPOUND>
CC[C@@]1(O)C(=O)OCc2c1cc1n(c2=O)Cc2cc3c(CN(C)C)c(O)ccc3nc2-1 + Cc1[nH]c2ccc(F)cc2c1-c1nc2c3cccnc3c3ncccc3c2[nH]1

>  <viability, T/C, %>
119

$$$$
>  <COMPOUND>
Cc1[nH]c2ccccc2c1CCNCc1ccc(/C=C/C(=O)NO)cc1 + Cc1[nH]c2ccc(F)cc2c1-c1nc2c3cccnc3c3ncccc3c2[nH]1

>  <viability, T/C, %>
99.7

$$$$
>  <COMPOUND>
Cn1ncnc1[C@H]1c2n[nH]c(=O)c3cc(F)cc(c23)N[C@@H]1c1ccc(F)cc1 + Cc1cnc(CNC(=O)c2c(=O)c3ccc(N4CCCN(C)CC4)nc3n3c2sc2ccccc23)cn1

>  <viability, T/C, %>
96.5

$$$$
